- system_tested: h-GABAA α2β2γ1 (Homo sapiens, UniProt P47869+Q8N1C3)
- Sequence (P47869 29-451): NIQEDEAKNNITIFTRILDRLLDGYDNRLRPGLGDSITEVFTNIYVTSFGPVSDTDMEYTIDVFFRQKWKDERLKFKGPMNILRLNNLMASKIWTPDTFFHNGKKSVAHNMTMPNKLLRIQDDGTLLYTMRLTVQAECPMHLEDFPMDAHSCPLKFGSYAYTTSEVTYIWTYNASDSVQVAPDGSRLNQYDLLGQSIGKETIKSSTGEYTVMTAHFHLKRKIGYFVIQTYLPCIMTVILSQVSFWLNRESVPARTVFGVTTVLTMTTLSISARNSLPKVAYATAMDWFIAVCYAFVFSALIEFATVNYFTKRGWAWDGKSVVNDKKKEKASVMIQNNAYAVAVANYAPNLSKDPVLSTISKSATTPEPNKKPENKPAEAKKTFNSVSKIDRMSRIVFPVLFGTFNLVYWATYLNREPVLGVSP
- Sequence (P47870 25-512 partner limits assumed): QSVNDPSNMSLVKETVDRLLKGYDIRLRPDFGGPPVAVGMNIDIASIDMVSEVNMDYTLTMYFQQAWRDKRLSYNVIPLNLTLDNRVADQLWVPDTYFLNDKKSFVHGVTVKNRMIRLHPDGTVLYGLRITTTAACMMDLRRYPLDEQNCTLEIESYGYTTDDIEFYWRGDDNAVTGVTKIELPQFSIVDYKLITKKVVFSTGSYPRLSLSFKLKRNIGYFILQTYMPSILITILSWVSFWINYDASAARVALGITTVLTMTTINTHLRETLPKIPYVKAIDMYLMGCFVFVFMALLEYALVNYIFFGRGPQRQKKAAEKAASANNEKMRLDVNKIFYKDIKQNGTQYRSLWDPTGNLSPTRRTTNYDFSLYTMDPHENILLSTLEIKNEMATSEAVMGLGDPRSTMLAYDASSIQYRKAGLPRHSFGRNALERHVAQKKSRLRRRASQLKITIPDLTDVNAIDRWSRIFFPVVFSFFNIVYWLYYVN
- Sequence (Q8N1C3 36-465): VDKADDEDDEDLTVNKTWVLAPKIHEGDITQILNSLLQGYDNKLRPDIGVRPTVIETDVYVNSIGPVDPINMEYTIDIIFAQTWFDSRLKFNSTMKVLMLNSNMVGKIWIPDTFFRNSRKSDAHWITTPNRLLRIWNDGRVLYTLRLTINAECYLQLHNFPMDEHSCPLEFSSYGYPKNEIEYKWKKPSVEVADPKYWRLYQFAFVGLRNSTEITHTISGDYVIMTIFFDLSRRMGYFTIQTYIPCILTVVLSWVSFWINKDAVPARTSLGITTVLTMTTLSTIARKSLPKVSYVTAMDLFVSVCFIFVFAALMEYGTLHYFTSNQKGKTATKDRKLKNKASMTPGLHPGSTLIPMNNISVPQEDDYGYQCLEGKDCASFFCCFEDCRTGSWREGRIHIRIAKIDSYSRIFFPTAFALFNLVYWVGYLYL
- assay_protocol: Two-electrode voltage clamp electrophysiology in Xenopus oocytes, modulation of GABA EC20 current
- Assay type: cell-based
- Parameters: host or cells: Xenopus laevis oocytes, RNA micro-injection
- conditions: Table 2; compound at approx. 30-fold its Ki α2β2γ1, GABA EC20, Xenopus oocytes
property_measured: Fold increase h-GABA-A α2β2γ1 oocyte @ 30-fold Ki
Enter a number only.

1) Cc1ccc2c(c1Cl)C(c1c(F)cccc1F)=NCc1nnc(C)n1-2 :: 1.57
2) O=c1[nH]nc2n1-c1ccc(Br)c(Cl)c1C(c1c(F)cccc1F)=NC2 :: 1.52
3) Fc1cccnc1C1=NCc2nnc(-c3ccncn3)n2-c2ccc(Cl)c(Cl)c21 :: 1.59
4) OCc1nnc2n1-c1ccc(Br)c(Cl)c1C(c1c(F)cccc1F)=NC2 :: 1.80
5) Cc1nnc2n1-c1ccc(C(F)(F)F)c(Cl)c1C(c1ncccc1F)=NC2 :: 2.03

## Task // Fold increase h-GABA-A α2β2γ1 oocyte @ 30-fold Ki lookup, key: CC(F)(F)c1ccc2c(c1Cl)C(c1c(F)cccc1F)=NCc1nncn1-2
## Result 2.00

## Task // Fold increase h-GABA-A α2β2γ1 oocyte @ 30-fold Ki lookup, key: Cc1nnc2n1-c1ccc(C(F)(F)F)c(Cl)c1C(c1c(F)cccc1F)=NC2
## Result 1.75

## Task // Fold increase h-GABA-A α2β2γ1 oocyte @ 30-fold Ki lookup, key: Fc1cccnc1C1=NCc2nncn2-c2ccc(Br)c(Cl)c21
## Result 2.05

## Task // Fold increase h-GABA-A α2β2γ1 oocyte @ 30-fold Ki lookup, key: Cl.NCc1nnc2n1-c1ccc(Br)c(Cl)c1C(c1c(F)cccc1F)=NC2
## Result 1.33
